These entries and their values trace back to ChEMBL document CHEMBL1125019.

biological target: D(1A) dopamine receptor (Rattus norvegicus); assay: Binding affinity against Dopamine receptor D1 from rat brain corpus striatum membrane
Sequence (P18901 whole entry): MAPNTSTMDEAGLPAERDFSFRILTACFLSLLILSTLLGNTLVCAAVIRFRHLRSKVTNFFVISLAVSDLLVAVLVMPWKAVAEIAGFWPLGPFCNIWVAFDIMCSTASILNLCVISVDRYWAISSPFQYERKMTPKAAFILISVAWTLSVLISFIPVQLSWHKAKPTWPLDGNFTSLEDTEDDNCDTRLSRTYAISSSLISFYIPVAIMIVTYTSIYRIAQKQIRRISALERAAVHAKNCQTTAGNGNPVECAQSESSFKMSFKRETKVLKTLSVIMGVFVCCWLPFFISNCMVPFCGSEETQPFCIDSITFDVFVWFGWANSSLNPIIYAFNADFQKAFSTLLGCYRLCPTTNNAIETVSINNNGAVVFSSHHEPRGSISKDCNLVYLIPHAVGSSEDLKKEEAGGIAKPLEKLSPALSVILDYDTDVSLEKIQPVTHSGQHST
reported metric: pIC50
To interpret pIC50, take it as minus log10 of a concentration measured in moles per litre.

Value of pIC50 reported for the molecule CCCN1CCc2cc(OC)cc3c2[C@H]1Cc1ccc(O)c(O)c1-3 is 5.48

Value of pIC50 reported for the molecule CCCN1CCc2cc(Br)cc3c2[C@H]1Cc1ccc(O)c(O)c1-3 is 6.01

More entries:
Value of pIC50 reported for the molecule CCCN1CCc2cc(O)cc3c2[C@H]1Cc1ccc(O)c(O)c1-3 is 5.76

Value of pIC50 reported for the molecule CCCN1CCc2cc(F)cc3c2[C@H]1Cc1ccc(O)c(O)c1-3 is 5.89

Value of pIC50 reported for the molecule CCCN1CCc2cc(F)cc3c2[C@H]1Cc1ccc2c(c1-3)OCO2 is 5.51
